Listed below: pIC50 values for each entry.
# MEASUREMENT_DESCRIPTION: Cytotoxicity against human SW480 cells after 48 hrs by MTT assay
# Assay type: functional, cell-based
# CONDITION_PARAMETERS: SW480, 48 h
pIC50: −log10 of the molar value.

{"SMILES_STRUCTURE": "CC[C@]12CCCN(CC[C@]3(O)C(=O)Nc4ccccc43)[C@H]1OCC2", "pIC50": "< 4.40"}
{"SMILES_STRUCTURE": "CC[C@@]12CCCN3CC[C@]4(C(=O)c5ccccc5N4[C@@H](OC)C1)[C@H]32", "pIC50": "< 4.40"}
{"SMILES_STRUCTURE": "CC[C@@]12CCCN3CC[C@]4(C(=O)c5ccccc5N4[C@H](OC)C1)[C@H]32", "pIC50": "< 4.40"}
{"SMILES_STRUCTURE": "CC[C@@]12CCCN3CC[C@]4(C(=O)c5ccccc5N4[C@@H](O)[C@H]1O)[C@H]32", "pIC50": "< 4.40"}
{"SMILES_STRUCTURE": "CC[C@@]12CCCN3CC[C@@H](c4ccccc4NC(=O)CC1)[C@]32O", "pIC50": "< 4.40"}
{"SMILES_STRUCTURE": "CC[C@@]12CCCN3CC[C@]4(C(=O)c5ccccc5N4[C@@H](OC)[C@H]1O)[C@H]32", "pIC50": "< 4.40"}
{"SMILES_STRUCTURE": "CO[C@H]1CCN2CCc3c([nH]c4ccccc34)[C@@]3(C(=O)O)CCC=C1[C@H]23", "pIC50": "< 4.40"}
{"SMILES_STRUCTURE": "CC[C@@]12CCCN3CC[C@]4(C(=O)c5ccccc5N4C(=O)C1)[C@H]32", "pIC50": "< 4.40"}
{"SMILES_STRUCTURE": "CC[C@]12C=CN3c4ccccc4C(=O)[C@]34CCN(CCC1)[C@H]24", "pIC50": "< 4.40"}
{"SMILES_STRUCTURE": "CCO[C@@H]1C[C@@]2(CC)CCCN3CC[C@]4(C(=O)c5ccccc5N14)[C@H]32", "pIC50": "< 4.40"}
